src = paper PMC8179002

- System: cellular uptake of 2 in HeLa Kyoto cells
- Assay Protocol: cells
- Format: cell-based
- Details: HeLa; tpre 4 h with inhibitor, removal, tinc 0.5 h with 2 (10 µM)
Bridge positions count the residues as written; N and C are the ends. Peptide text beside a SMILES is read from it.
Endpoint Label: MIC, inhibition of cellular uptake of 2 (µM)
One number for each entry, in µM.

Observe how each entry below is paired with its result.
Compound: O=S1(=O)C[C@H](O)[C@H](O)CS1
MIC, inhibition of cellular uptake of 2 / µM: 20
//
Compound: N[C@H]1CSSC[C@@H](C(=O)NCC(=O)O)NC(=O)[C@H](CCC(=O)O)NC1=O [compound 18] (H-CECG-OH; disulfide 1-3)
MIC, inhibition of cellular uptake of 2 / µM: 100
//
Compound: O=C(O)CNC(=O)c1ccc2c(c1)SSSSS2
MIC, inhibition of cellular uptake of 2 / µM: 4
//
Compound: O=C(CN1C(=O)C2SSC1C(=O)N2CCOc1ccccc1)NCC(=O)OC[C@H]1OC(O)[C@H](O)[C@@H](O)[C@@H]1O (some centres unmarked)
MIC, inhibition of cellular uptake of 2 / µM: 70
//
Compound: O=C(O)CC[C@H](NC(=O)CCCCC1CCSS1(=O)=O)C(=O)O (some centres unmarked)
MIC, inhibition of cellular uptake of 2 / µM: 150
//
Compound: O=C(O)CC[C@H](NC(=O)CN1C(=O)C2SSC1C(=O)N2CCOc1ccccc1)C(=O)O (some centres unmarked)
MIC, inhibition of cellular uptake of 2 / µM: 60

Consider now this further compound.
Name the recorded MIC, inhibition of cellular uptake of 2 for N[C@H]1CSSC[C@@H](C(=O)N[C@@H](CCC(=O)O)C(=O)O)NC(=O)CNC1=O [compound 19] (H-CGCE-OH; disulfide 1-3) .
900

====

- Tested on: cellular uptake of 1 in HeLa Kyoto cells
- Assay Protocol: cells
- Type: cell-based
- Details: HeLa Kyoto, 2 h, HeLa; tpre 2 h with inhibitor, removal, tinc 0.5 h with 1 (10 µM); read-out: MIC, inhibition of cellular uptake of 1
Endpoint Label: minimal effective concentration (µM)
One number for each entry, in µM.

Compound: O=C(O)C1CS[S+]([O-])C1 (stereo not drawn)
Reading: 1000

Consider now this further compound.
Name the recorded minimal effective concentration for O=C(O)CC[C@H](NC(=O)CCCCC1CCSS1(=O)=O)C(=O)O (stereo partly drawn) .
50

====

- Assay Protocol: Relative cell viability in HCHT screening (propidium iodide negative nuclei count)
- Type: cell-based
- Details: human, HeLa; tpre 0.5 h, then tco 0.5 h co-incubation of inhibitor and 2 (10 µM); read-out: GI50, concentration causing 50% cell growth inhibition
Endpoint Label: GI50

Observe how each entry below is paired with its result.
Compound: CCN1C(=O)C2SSSSC1C(=O)N2CC(=O)O (stereo not drawn)
Endpoint Label: GI50
Reading: ~20 µM
--
Compound: O=C(O)CNC(=O)c1ccc2c(c1)SSSSS2
Endpoint Label: GI50
Reading: > 20 µM

Consider now this further compound.
Name the recorded GI50 for CCN1C(=O)C2SSC1C(=O)N2CC(=O)O (stereo not drawn) .
~20 µM

====

- Assay Protocol: Relative cell viability in HCHT screening (propidium iodide negative nuclei count)
- Type: cell-based
- Details: human, HeLa Kyoto cells, HeLa; tpre 5.5 h with FBS, then tco 0.5 h co-incubation of inhibitor and 1 (10 µM); read-out: GI50, concentration causing 50% cell growth inhibition
Bridge positions count the residues as written; N and C are the ends. Peptide text beside a SMILES is read from it.
Endpoint Label: GI50 at 6 h

Name the recorded GI50 at 6 h for N[C@H]1CSSC[C@@H](C(=O)NCC(=O)O)NC(=O)[C@H](CCC(=O)O)NC1=O [compound 18] (H-CECG-OH; disulfide 1-3) .
> 1 mM
